molecular target: human DPP1 enzyme (Homo sapiens); experiment: Human DPP1 Enzyme Single-Point Percent Inhibition Testing (HL-60 lysate); type: biochemical; parameters: A crude lysate of HL-60 cells (ATCC; Manassas, VA) was used as a source of human DPP1 enzyme; host or cells: HL-60 cells (crude lysate); conditions: final compound concentration of 10 nM, 400 μM H-Gly-Arg-AMC, n = 1
Sequence (P53634 25-463): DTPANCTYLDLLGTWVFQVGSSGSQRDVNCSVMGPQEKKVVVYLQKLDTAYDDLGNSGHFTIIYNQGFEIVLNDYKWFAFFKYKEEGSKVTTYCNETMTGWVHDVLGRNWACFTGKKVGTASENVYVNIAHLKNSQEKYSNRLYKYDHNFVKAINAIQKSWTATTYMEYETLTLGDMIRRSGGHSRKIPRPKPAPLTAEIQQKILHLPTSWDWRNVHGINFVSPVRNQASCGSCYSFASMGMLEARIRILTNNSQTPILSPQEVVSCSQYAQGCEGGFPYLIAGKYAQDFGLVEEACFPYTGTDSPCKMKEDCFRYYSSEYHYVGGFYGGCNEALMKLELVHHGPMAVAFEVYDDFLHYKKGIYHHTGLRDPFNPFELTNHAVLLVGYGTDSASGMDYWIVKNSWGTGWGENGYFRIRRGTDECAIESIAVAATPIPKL
MEASURED PARAMETER: inhibition at 0.01 µM

>>> experimental_value("C[C@@H]1NC[C@@H](C(=O)N[C@H](C#N)Cc2ccc(-c3cnc4c(n3)CCCC4)cc2F)OC[C@@H]1O")
"40 to 66.7%"
>>> experimental_value("C[C@@H]1NC[C@@H](C(=O)NC(C#N)Cc2cc3c(cc2F)-c2ccc4oc(=O)n(C)c4c2CO3)OC[C@H]1O (stereo partly shown)")
"≥ 66.7%"
>>> experimental_value("CO[C@@H]1CCNC[C@@H](C(=O)N[C@H](C#N)Cc2ccc(-c3cc4c(C)ncc(C)n4c3)cc2)OC1")
"≥ 66.7%"
>>> experimental_value("CO[C@H]1CCO[C@H](C(=O)N[C@H](C#N)Cc2ccc(-c3cc4c(C)nc(C)cn4c3)cc2)CNC1")
"≤ 40%"
>>> experimental_value("N#Cc1ccc2c(c1)-c1cc(F)c(CC(C#N)NC(=O)[C@@H]3CNCCCCO3)cc1OC2 (stereo partly shown)")
"≤ 40%"
>>> experimental_value("CO[C@H]1CCO[C@H](C(=O)N[C@H](C#N)Cc2ccc(-c3cc4c(C)nc(C)c(C)n4c3)cc2)CNC1")
"40 to 66.7%"
>>> experimental_value("COC1CNC[C@@H](C(=O)N[C@H](C#N)Cc2ccc(-c3ccn4ccnc4c3)cc2)OC1 (stereo partly shown)")
"40 to 66.7%"
>>> experimental_value("N#C[C@H](Cc1ccc(-c2ccc3c(n2)CCCN3)cc1F)NC(=O)[C@@H]1CNCCCO1")
"≤ 40%"
>>> experimental_value("C[C@@H]1NC[C@@H](C(=O)N[C@H](C#N)Cc2ccc(-c3ccc4cnn(C5CCN(C)CC5)c4c3)cc2)OC[C@H]1O")
"≥ 66.7%"
>>> experimental_value("CO[C@H]1CCO[C@H](C(=O)N[C@H](C#N)Cc2ccc(-c3ccc(S(=O)(=O)N4CCC4)cc3)cc2F)CNC1")
"40 to 66.7%"

###

Entries and their measured IC50 follow.
molecular target: human DPP1 enzyme (Homo sapiens, UniProt P53634); test: Human DPP1 Enzyme IC50 Assay; type: biochemical; design: was first proteolytically processed into its mature form using recombinant human cathepsin L; purchased R&D Systems; conditions: activated recombinant human DPP1, 400 μM H-Gly-Arg-AMC, 10 minutes pre-incubation at 37° C., pH 6.0; average of n runs; read-out: Avg. IC50 (Human DPP1 enzyme IC50 value ranges)
Sequence (P53634 25-134 limits assumed): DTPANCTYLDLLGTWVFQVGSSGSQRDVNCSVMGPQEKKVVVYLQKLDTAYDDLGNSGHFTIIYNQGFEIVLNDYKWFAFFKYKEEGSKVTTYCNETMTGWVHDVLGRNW
Sequence (P53634 231-394 limits assumed): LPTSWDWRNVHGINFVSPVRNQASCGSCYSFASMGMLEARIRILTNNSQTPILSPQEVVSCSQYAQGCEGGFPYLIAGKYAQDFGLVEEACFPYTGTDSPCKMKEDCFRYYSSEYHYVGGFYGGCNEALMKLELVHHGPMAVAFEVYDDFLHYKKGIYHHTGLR
Sequence (P53634 395-463 limits assumed): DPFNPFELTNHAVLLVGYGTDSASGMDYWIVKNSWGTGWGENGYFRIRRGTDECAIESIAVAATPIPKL
MEASURED PARAMETER: IC50

>>> experimental_value("N#C[C@H](Cc1ccc(-c2ccc3c(c2)C2(CCNCC2)CC3=O)cc1)NC(=O)[C@@H]1CNCCCO1 [Compound 30]")
"5 to 15 nM"
>>> experimental_value("COC1CNC[C@@H](C(=O)N[C@H](C#N)Cc2ccc(-c3ccc4c(c3)CCC(=O)N4C)cc2F)OC1 (some centres unmarked) [Compound A152]")
"< 5 nM"
>>> experimental_value("CO[C@H]1CNC[C@@H](C(=O)N[C@H](C#N)Cc2ccc(-c3cc4c(C)nc(C)cn4c3)cc2F)OC1 [Compound A88-B]")
"< 5 nM"
>>> experimental_value("CN1CCC(n2ncc3ccc(-c4ccc(C[C@@H](C#N)NC(=O)[C@@H]5CNCCCO5)c(F)c4)cc32)CC1 [Compound A3]")
"5 to 15 nM"
>>> experimental_value("N#C[C@H](Cc1ccc(-c2ccnc3nc(O)oc23)cc1)NC(=O)[C@@H]1CNCCCO1 [Compound A13]")
"> 15 nM"
>>> experimental_value("CO[C@@H]1CNC[C@@H](C(=O)N[C@H](C#N)Cc2ccc(-c3ccc4nnn(C)c4c3)cc2)OC1 [Compound H12-B]")
"< 5 nM"
>>> experimental_value("N#C[C@H](Cc1ccc(-c2cnc3c(n2)CCCC3)cc1)NC(=O)[C@@H]1CNCCCO1 [Compound A11]")
"> 15 nM"
>>> experimental_value("COC1CNC[C@@H](C(=O)N[C@H](C#N)Cc2ccc(-c3cc4c(C)nc(C)cn4c3)cc2F)OC1 (some centres unmarked) [Compound A88]")
"< 5 nM"
